Value source: the supplement of paper PMC10567573

B1: NET1 (parent)
chain: IKRTIRVLDVNNQSFREQEEPSNK

variants of: B1; test: protein stability index of a GFP-peptide fusion (GPS, HEK-293T) (PSI 1-6); higher = more stable; details: c terminus: a fixed tail appended;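 note: lentivirally expressed fusions sorted by FACS into six bins by GFP to DsRed ratio, PSI derived from sequencing read proportions per bin multiplied by bin number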
Quick rule: protein stability index of at least 4 means met, below that means not met.

Record excerpt, results attached:
CONSTRUCT SEQUENCE	CLASS
IKRTIRKLDVNNQSFREQEEPSNK [V7K]	met
IKRTIRVLDVNNQVFREQEEPSNK [S14V]	not met
IKRTIRVLDHNNQSFREQEEPSNK [V10H]	met
IKRTIRVLDVNNQSFRLQEEPSNK [E17L]	not met
IKRTIRVLDVNNQSFREQEEPSGK [N23G]	not met
IKLTIRVLDVNNQSFREQEEPSNK [R3L]	not met

Q: Test whether the variant IKSTIRVLDVNNQSFREQEEPSNK [R3S] records protein stability index of 4 or higher.
Result: met

Q: Test whether the variant IKRTWRVLDVNNQSFREQEEPSNK [I5W] records protein stability index of 4 or higher.
Result: not met

Q: Test whether the variant IKRTIRVLDVGNQSFREQEEPSNK [N11G] records protein stability index of 4 or higher.
Result: not met

Q: Test whether the variant IKRTIRVLDVNNQSLREQEEPSNK [F15L] records protein stability index of 4 or higher.
Result: not met
